The origin of these recorded values is patent US4259235A.

Tested on: spring wheat
PROCEDURE_SUMMARY: Growth height of spring wheat, soil treatment, Example 10
Assay type: in vivo, spring wheat ("Opal" variety)
REPORTED_CONDITIONS: 12 kg/ha
Procedure: Spring wheat ("Opal" variety) and spring barley ("Union" variety) were grown under greenhouse conditions in plastic dishes 11.5 cm in diameter, in a peat substrate provided with sufficient nutrients. For the soil (preemergence) treatment, the active ingredients were poured, at two application rates, as aqueous formulations onto the surface of the substrate after sowing. The plant height was measured at the end of the experiment. […]
RECORDED_ENDPOINT: Plant height, % of untreated control

{"columns": ["COMPOUND", "ASSAY_SYSTEM", "RECORDED_ENDPOINT", "ASSAY_VALUE"],
 "data": [
  ["O=P(O)(O)CCCl [Ethephon, β-chloroethylphosphonic acid, reference compound]", "spring wheat", "Plant height, % of untreated control", "78.1%"],
  ["Brc1ccc(C2=NOC3C4CC(C5N=NC45)C23)cc1 (stereo not shown) [drawing 393]", "spring wheat", "Plant height, % of untreated control", "79.7%"],
  ["Cc1ccc(C2=NOC3C4CC(C5N=NC45)C23)cc1 (stereo not shown) [drawing 395]", "spring wheat", "Plant height, % of untreated control", "68.8%"],
  ["COc1ccc(C2=NOC3C4CC(C5N=NC45)C23)cc1 (stereo not shown) [drawing 396]", "spring wheat", "Plant height, % of untreated control", "76.6%"],
  ["Clc1ccc(C2=NOC3C4CC(C5N=NC45)C23)cc1 (stereo not shown) [drawing 397]", "spring wheat", "Plant height, % of untreated control", "46.9%"],
  ["Clc1ccc(C2N=NC3C4CC(C5N=NC45)C23)cc1 (stereo not shown) [drawing 392]", "spring wheat", "Plant height, % of untreated control", "43.8%"],
  ["O=[N+]([O-])c1ccc(C2=NOC3C4CC(C5N=NC45)C23)cc1 (stereo not shown) [drawing 394]", "spring wheat", "Plant height, % of untreated control", "68.8%"]
]}
